- System: tau aggregates in DRG neurons from P301S tau mice
- Experimental protocol: Fluorescence binding to cultured DRG neurons from P301S tau transgenic mice
- Type: cell-based, mouse
- Condition parameters: Mus musculus, DRG neuron; fixed, permeabilized DRG neurons; read-out: IC50, fixed and permeabilized neurons
Parameter: pIC50
// scale note: pIC50 = -log10(conc_M); give the bare number

Q: Please supply the value of reported pIC50 for the item CNc1ccc(/C=C/C=C/c2nc3cc(F)c(O)cc3s2)cn1 [LM229]
A: 5.77

---

- Study target: heparin-induced synthetic recombinant tau fibrils (tau-441 human) (Homo sapiens)
- Construct: purchased Eurogentec
- Sequence (P10636 1-441 isoform P10636-8): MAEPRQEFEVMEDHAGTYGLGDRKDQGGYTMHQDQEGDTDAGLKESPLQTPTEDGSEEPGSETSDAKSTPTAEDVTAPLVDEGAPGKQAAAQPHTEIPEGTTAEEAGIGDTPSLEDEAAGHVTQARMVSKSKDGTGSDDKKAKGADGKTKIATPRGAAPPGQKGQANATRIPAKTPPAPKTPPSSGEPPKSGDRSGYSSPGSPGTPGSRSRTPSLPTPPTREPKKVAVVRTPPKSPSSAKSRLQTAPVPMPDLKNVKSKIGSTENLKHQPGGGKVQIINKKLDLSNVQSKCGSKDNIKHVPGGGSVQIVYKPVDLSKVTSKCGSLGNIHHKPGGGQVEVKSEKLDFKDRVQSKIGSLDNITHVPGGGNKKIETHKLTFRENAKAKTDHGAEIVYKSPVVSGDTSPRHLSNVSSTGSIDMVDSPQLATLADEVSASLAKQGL
- Experimental protocol: Fluorescence quenching assay of compound binding to heparin-induced synthetic recombinant tau fibrils
- Condition parameters: read-out: Kd of compound binding to heparin-induced synthetic tau fibrils determined by fluorimetry
Parameter: Kd (nM)
Record the value in nM, omitting the unit from your answer.

# Compound, Study target, Kd / nM
rows = [
    ("Oc1ccc2nc(/C=C/C=C/c3ccc(F)nc3)sc2c1", "heparin-induced synthetic recombinant tau fibrils (tau-441 human) (Homo sapiens)", 56),
    ("CNc1ccc(/C=C/C=C/c2nc3ccc(O)cc3s2)cn1 [PBB3, reference compound]", "heparin-induced synthetic recombinant tau fibrils (tau-441 human) (Homo sapiens)", 1.4),
    ("CNc1ccc(/C=C/C=C/c2nc3cc(OCCF)ccc3s2)cn1", "heparin-induced synthetic recombinant tau fibrils (tau-441 human) (Homo sapiens)", 454),
    ("CNc1ccc(/C=C/C=C/c2nc3cc(F)c(OC)cc3s2)cn1", "heparin-induced synthetic recombinant tau fibrils (tau-441 human) (Homo sapiens)", 1.1),
]

Q: Please supply the value of reported Kd for the item CNc1ccc(/C=C/C=C/c2nc3cc(F)c(O)cc3s2)cn1
A: 3.6

Q: Please supply the value of reported Kd for the item Oc1ccc2nc(/C=C/C=C/c3ccc(F)cn3)sc2c1
A: 353
